pIC50 values by entry
- tgt: HIV integrase (Human immunodeficiency virus type 1 group M subtype B, UniProt P12497, F1332H)
- Construct: HIV integrase full length gene; made in house; host or cells: Escherichia coli BL21(DE3)
- assay-protocol: Determination of enzyme (HIV integrase) inhibitory activity (strand transfer, microtiter plate, absorbance at 450 nm)
- Format: biochemical, HIV (Human Immunodeficiency Virus (type 1))
- assay-setup: recombinant HIV integrase (F185H) expressed in E. coli; donor DNA on streptavidin plate, digoxigenin target DNA; 37° C.
- Procedure: The following explains evaluation methods of the HIV integrase inhibitory activity of the compound of the present invention. (i) Construction of Recombinant Integrase Gene Expression System (ii) Production and Purification of Integrase Protein […] A peroxidase color solution (Bio Rad, 100 μl) was added and allowed to react at room temperature for 4 min. […] The absorbance at 450 nm was measured. […]
pIC50: −log10 of the molar value.

chemical-structure	pIC50
CC(C)(CO)n1cc(C(=O)O)c(=O)c2cc(Cc3cccc(Cl)c3F)ccc21	7.74
CC[C@@H](CO)n1cc(C(=O)O)c(=O)c2cc(Cc3cccc(Cl)c3F)c(OC(C)C)cc21	8.42
CS(=O)(=O)c1ccc(Cl)c(Cc2ccc3c(c2)c(=O)c(C(=O)O)cn3CCO)c1	6.07
O=C(O)c1cn(CCc2ccccc2)c2ccc(Cc3cccc(Cl)c3Cl)cc2c1=O	7.49
O=C(O)c1cn(C2CCC2)c2ccc(Cc3cccc(Cl)c3Cl)cc2c1=O	7.80
CN(C)S(=O)(=O)Cn1cc(C(=O)O)c(=O)c2cc(Cc3c(F)cccc3Cl)ccc21	7.20
O=C(O)c1cn(-c2ccccc2)c2ccc(Cc3cccc(Cl)c3Cl)cc2c1=O	7.08
O=C(O)c1cn(CCO)c2cc(OCCO)c(Cc3cccc(Cl)c3F)cc2c1=O	8.07
O=C(O)c1cn(CCO)c2ccc(Cc3ccccc3Cl)cc2c1=O	6.85
C[C@H](CO)n1cc(C(=O)O)c(=O)c2cc(Cc3cccc(Cl)c3F)ccc21	7.41
COc1cc(Cc2c(F)ccc(Cl)c2F)cc2c(=O)c(C(=O)O)cn([C@@H](C)CO)c12	7.82
COC(=O)c1cn(CCO)c2ccc(Cc3cccc(Cl)c3Cl)cc2c1=O	6.15
CNS(=O)(=O)Cn1cc(C(=O)O)c(=O)c2cc(Cc3cccc(Cl)c3Cl)ccc21	7.89
Cc1ncsc1CCn1cc(C(=O)O)c(=O)c2cc(Cc3cccc(Cl)c3Cl)ccc21	6.62
CC(C)Cn1cc(C(=O)O)c(=O)c2cc(Cc3cccc(Cl)c3Cl)ccc21	6.92
O=C(O)c1cn(CCO)c2ccc(Cc3cccc(Cl)c3Cl)c(O)c2c1=O	7.62
O=C(O)c1cn([C@H](CO)C2CCCCC2)c2ccc(Cc3cccc(Cl)c3F)cc2c1=O	8.70

Provenance of the data: patent US8232401B2
